B1: PDS5B (parent)
chain: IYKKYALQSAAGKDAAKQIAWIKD

# Variants of: B1
# Measurement notes: protein stability index of a GFP-peptide fusion (GPS, HEK-293T) (PSI 1-6); higher = more stable;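 note: lentivirally expressed fusions sorted by FACS into six bins by GFP to DsRed ratio, PSI derived from sequencing read proportions per bin multiplied by bin number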
# Protocol conditions: c terminus: a fixed tail appended
Observation type: protein stability index

INSERT INTO measurements (variant_code, observed_measurement) VALUES
  ('G12S', 1.96),
  ('A11H', 1.75),
  ('G12H', 1.67),
  ('G12D', 3.13),
  ('Y2I', 1.77),
  ('K3V', 1.75),
  ('Y2Q', 2.5),
  ('D14M', 2.1),
  ('W21I', 2.88),
  ('A11W', 1.82),
  ('A6F', 2.49),
  ('D14H', 1.86),
  ('S9E', 2.73),
  ('D14V', 2.1),
  ('Y2K', 2.87),
  ('A16H', 2.29),
  ('W21V', 2.72),
  ('Q8P', 2.72),
  ('W21R', 2.74),
  ('D24W', 1.66),
  ('Y2A', 2.32),
  ('K4H', 2.39),
  ('I22N', 3.26),
  ('Q18G', 2.45),
  ('A20N', 2.68),
  ('A6D', 2.32),
  ('A16I', 2.47),
  ('Y5F', 1.92),
  ('Q18A', 2.06),
  ('K23A', 2.11),
  ('G12L', 1.84),
  ('K17Q', 2.19),
  ('K4L', 1.75),
  ('A10M', 1.83),
  ('Q18F', 2.33),
  ('A20C', 2.18),
  ('D14A', 1.9),
  ('A15F', 1.75),
  ('W21Q', 3.09),
  ('D24E', 1.75),
  ('K23Q', 2.23),
  ('D24L', 2.02),
  ('L7V', 2.32),
  ('A10Q', 2.4),
  ('Y5V', 2.89),
  ('Q8I', 2.7),
  ('A6I', 2.12),
  ('S9C', 2),
  ('W21Y', 2.42),
  ('D24N', 2.24),
  ('K13V', 2),
  ('Y2R', 2.38),
  ('A11K', 2.5),
  ('A15D', 2.35),
  ('D24G', 2.08),
  ('K4A', 2.13),
  ('A16D', 2.75),
  ('S9N', 2.2),
  ('A6S', 2.49),
  ('K23G', 2.68),
  ('I19D', 3.79),
  ('K4S', 2.23),
  ('A16Y', 2.05),
  ('A11R', 1.75),
  ('D24K', 2.19),
  ('I19F', 2.29),
  ('A20V', 2.08),
  ('A10R', 1.37),
  ('I1C', 3.19),
  ('D24P', 2.79),
  ('Q8K', 2.35),
  ('K13Q', 2.1),
  ('L7I', 1.95),
  ('L7M', 2.32),
  ('I19P', 3.11),
  ('D14P', 2.34),
  ('I1G', 2.81),
  ('I19R', 2.38),
  ('L7K', 2.55),
  ('Q8N', 2.06),
  ('S9H', 2.38),
  ('I19T', 2.77),
  ('K3A', 2.26),
  ('K13T', 2.3),
  ('K13N', 2.27),
  ('A15G', 2.9),
  ('I19H', 3.34),
  ('Y2V', 2.27),
  ('S9G', 2.17),
  ('Q8F', 3.35),
  ('A20D', 3.39);
